Each item that follows carries a reported Activity.
# System: Caenorhabditis elegans
# ASSAY_TEXT: Effect on life span of Caenorhabditis elegans at 50 uM
# Format: functional
Write the answer as a number in %, unit excluded.

// known answers, use as guide
{"COMPOUND": "CN1CCN2c3ncccc3Cc3ccccc3C2C1 (stereo unspecified)", "SYSTEM_NAME": "Caenorhabditis elegans", "UNIT_TAG": "%", "RECORDED_NUMBER": 20}
{"COMPOUND": "N[C@@H](Cc1ccccc1)C(=O)O", "SYSTEM_NAME": "Caenorhabditis elegans", "UNIT_TAG": "%", "RECORDED_NUMBER": -1}
{"COMPOUND": "CCCN(CCC)C1CCc2cccc(O)c2C1 (stereo unspecified)", "SYSTEM_NAME": "Caenorhabditis elegans", "UNIT_TAG": "%", "RECORDED_NUMBER": 3}
{"COMPOUND": "CN1CCC(=C2c3ccccc3C=Cc3ccccc32)CC1", "SYSTEM_NAME": "Caenorhabditis elegans", "UNIT_TAG": "%", "RECORDED_NUMBER": 19}
{"COMPOUND": "O=C1c2ccccc2S(=O)(=O)N1CCCCN1CCN(c2ncccn2)CC1", "SYSTEM_NAME": "Caenorhabditis elegans", "UNIT_TAG": "%", "RECORDED_NUMBER": 3}
{"COMPOUND": "COc1ccccc1N1CCN(CCCCN2C(=O)CCC2=O)CC1", "SYSTEM_NAME": "Caenorhabditis elegans", "UNIT_TAG": "%", "RECORDED_NUMBER": 6}
{"COMPOUND": "CN(C)Cc1c[nH]c2ccccc12", "SYSTEM_NAME": "Caenorhabditis elegans", "UNIT_TAG": "%", "RECORDED_NUMBER": 2}
{"COMPOUND": "CNCCC(Oc1ccc(C(F)(F)F)cc1)c1ccccc1 (stereo unspecified)", "SYSTEM_NAME": "Caenorhabditis elegans", "UNIT_TAG": "%", "RECORDED_NUMBER": -12}
{"COMPOUND": "Clc1cccc(N2CCNCC2)c1", "SYSTEM_NAME": "Caenorhabditis elegans", "UNIT_TAG": "%", "RECORDED_NUMBER": -26}
{"COMPOUND": "CN1CCN2c3ccccc3Cc3ccccc3C2C1 (stereo unspecified)", "SYSTEM_NAME": "Caenorhabditis elegans", "UNIT_TAG": "%", "RECORDED_NUMBER": 25}

# ---- query compound ----
# query: Activity of entry Fc1ccc([C@@H]2CCNC[C@H]2COc2ccc3c(c2)OCO3)cc1
-42

----------
# Test system: Caenorhabditis elegans
# ASSAY_TEXT: Effect on life span of Caenorhabditis elegans at 200 uM
# Format: functional
REPORTED_METRIC: Activity (%)
Write the answer as a number in %, unit excluded.

// known answers, use as guide
{"COMPOUND": "N[C@@H](Cc1ccccc1)C(=O)O", "SYSTEM_NAME": "Caenorhabditis elegans", "Activity / %": -2}
{"COMPOUND": "CNCCCN1c2ccccc2CCc2ccccc21", "SYSTEM_NAME": "Caenorhabditis elegans", "Activity / %": 3}
{"COMPOUND": "CNCCC(Oc1ccc(C(F)(F)F)cc1)c1ccccc1 (stereo not given)", "SYSTEM_NAME": "Caenorhabditis elegans", "Activity / %": -48}

# query: Activity of entry CCCN(CCC)C1CCc2cccc(O)c2C1 (stereo not given)
-13

What do you get for CN(C)CCCN1c2ccccc2CCc2ccccc21 ?
-2

----------
# Test system: Caenorhabditis elegans
# ASSAY_TEXT: Effect on life span of Caenorhabditis elegans at 50 uM
# Assay type: functional
Label Y for high-side Activity (at or above -10%) and N for low-side Activity (below it).

{"SMILES_STRING": "COc1ccccc1N1CCN(CCCCN2C(=O)c3ccccc3C2=O)CC1", "CATEGORY": "N"}
{"SMILES_STRING": "CNCCCN1c2ccccc2CCc2ccccc21", "CATEGORY": "Y"}
{"SMILES_STRING": "CN[C@H]1CC[C@@H](c2ccc(Cl)c(Cl)c2)c2ccccc21", "CATEGORY": "N"}
{"SMILES_STRING": "c1cc2c(c(N3CCNCC3)c1)OCCO2", "CATEGORY": "N"}

Moving on to another molecule below.
Is it the case that CN(C)CCCN1c2ccccc2CCc2ccccc21 has Activity reaching or exceeding -10%?
Y

This collection of values is drawn from ChEMBL document CHEMBL1147087.
